- target: human TLR7 (Homo sapiens)
- Construct: expressed in transfected cells
- Sequence (Q9NYK1 27-1049): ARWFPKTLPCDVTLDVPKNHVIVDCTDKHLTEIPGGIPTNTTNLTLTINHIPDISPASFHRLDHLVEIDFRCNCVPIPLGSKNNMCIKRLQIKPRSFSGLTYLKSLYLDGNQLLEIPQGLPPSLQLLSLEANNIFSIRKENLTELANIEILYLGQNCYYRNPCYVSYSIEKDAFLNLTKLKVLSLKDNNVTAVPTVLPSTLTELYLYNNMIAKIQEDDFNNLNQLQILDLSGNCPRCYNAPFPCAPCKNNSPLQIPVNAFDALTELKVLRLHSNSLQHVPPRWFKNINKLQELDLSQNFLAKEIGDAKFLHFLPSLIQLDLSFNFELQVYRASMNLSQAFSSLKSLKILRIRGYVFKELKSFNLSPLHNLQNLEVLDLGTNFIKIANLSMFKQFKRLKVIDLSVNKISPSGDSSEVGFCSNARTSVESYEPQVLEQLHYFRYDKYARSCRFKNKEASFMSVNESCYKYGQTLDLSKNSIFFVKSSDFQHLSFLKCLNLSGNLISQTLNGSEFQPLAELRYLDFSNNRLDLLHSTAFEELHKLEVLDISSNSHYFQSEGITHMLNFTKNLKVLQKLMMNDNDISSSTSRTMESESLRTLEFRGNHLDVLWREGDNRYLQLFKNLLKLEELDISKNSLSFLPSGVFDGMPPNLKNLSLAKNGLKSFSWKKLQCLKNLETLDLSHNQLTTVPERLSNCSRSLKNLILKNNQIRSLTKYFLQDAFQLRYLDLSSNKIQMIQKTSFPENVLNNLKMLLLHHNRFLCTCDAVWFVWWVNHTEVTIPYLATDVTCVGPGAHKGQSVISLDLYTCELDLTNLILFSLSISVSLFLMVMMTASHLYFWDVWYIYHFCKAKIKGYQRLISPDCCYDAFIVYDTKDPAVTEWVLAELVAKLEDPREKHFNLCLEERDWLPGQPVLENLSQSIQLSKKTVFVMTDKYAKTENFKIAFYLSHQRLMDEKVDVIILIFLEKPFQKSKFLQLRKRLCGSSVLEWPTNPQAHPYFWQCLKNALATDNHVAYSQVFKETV
- assay remarks: Reporter gene assay (HEK293 cells with human TLR7 and NF-kB-driven luciferase reporter)
- Type: cell-based
- particulars: HEK 293 cells stably transfected with human TLR7 and NF-kB-driven luciferase reporter; 7 hours incubation; EC50 relative to activity of resiquimod set to 100%
quantity name: EC50
Remember to follow the number with its unit.

Ask: Give the reported EC50 for this molecule. `CCCC[C@@H](CO)Nc1nc(N)nc2ccn(Cc3cc(Cc4nnn[nH]4)ccc3OC)c12`
Result: 0.1 µM

Ask: Give the reported EC50 for this molecule. `CCCC[C@@H](CO)Nc1nc(N)nc2ccn(Cc3cc(CCC(=O)O)ccc3OC)c12`
Result: 0.4 µM

Ask: Give the reported EC50 for this molecule. `CCCCCNc1nc(N)nc2ccn(Cc3cc(CC(=O)O)ccc3OC)c12`
Result: 0.05 µM

Ask: Give the reported EC50 for this molecule. `CCCCCCNc1nc(N)nc2ccn(Cc3cc(-c4nnn[nH]4)ccc3OC)c12`
Result: 0.8 µM

Ask: Give the reported EC50 for this molecule. `CCCC[C@@H](CO)Nc1nc(N)nc2ccn(Cc3cc(-c4nnn[nH]4)ccc3OC)c12`
Result: 0.2 µM

Ask: Give the reported EC50 for this molecule. `CCCCCNc1nc(N)nc2ccn(Cc3ccc(OCC(=O)O)cc3OC)c12`
Result: 0.4 µM

Ask: Give the reported EC50 for this molecule. `CCCC[C@@H](CO)Nc1nc(N)nc2ccn(Cc3cc(CC(=O)O)ccc3OC)c12`
Result: 0.4 µM

Ask: Give the reported EC50 for this molecule. `CCCCCNc1nc(N)nc2ccn(Cc3cc(CCC(=O)O)ccc3OC)c12`
Result: 0.4 µM

Ask: Give the reported EC50 for this molecule. `CCCCCNc1nc(N)nc2ccn(Cc3cc(Cc4nnn(CC(=O)O)n4)ccc3OC)c12`
Result: 0.2 µM

Ask: Give the reported EC50 for this molecule. `CCCCCNc1nc(N)nc2ccn(Cc3cc(P(=O)(O)O)ccc3OC)c12`
Result: 0.08 µM

Ask: Give the reported EC50 for this molecule. `CCCCCNc1nc(N)nc2ccn(Cc3cc(C(C)(C)c4nnn[nH]4)ccc3OC)c12`
Result: 0.1 µM

Ask: Give the reported EC50 for this molecule. `CCCCCNc1nc(N)nc2ccn(Cc3cc(OCc4nnn[nH]4)ccc3OC)c12`
Result: 0.1 µM

Ask: Give the reported EC50 for this molecule. `CCCCCNc1nc(N)nc2ccn(Cc3cc(CC[C@@H](O)C[C@@H](O)CC(=O)O)ccc3OC)c12`
Result: 0.6 µM

Ask: Give the reported EC50 for this molecule. `CCCCCNc1nc(N)nc2ccn(Cc3cc(CN4CCC[C@@H]4C(=O)O)ccc3OC)c12`
Result: 0.08 µM

Ask: Give the reported EC50 for this molecule. `CCCCCNc1nc(N)nc2ccn(Cc3cc(C(F)(F)C(=O)O)ccc3OC)c12`
Result: 0.5 µM

Ask: Give the reported EC50 for this molecule. `CCCCCNc1nc(N)nc2ccn(Cc3cc(C(F)(F)c4nnn[nH]4)ccc3OC)c12`
Result: 0.2 µM

Ask: Give the reported EC50 for this molecule. `CCCCCNc1nc(N)nc2ccn(Cc3ccc(-c4nnn[nH]4)cc3OC)c12`
Result: 1.4 µM

Ask: Give the reported EC50 for this molecule. `CCCCCNc1nc(N)nc2ccn(Cc3ccc(CN4CCC[C@H]4C(=O)O)cc3OC)c12`
Result: 0.008 µM

Ask: Give the reported EC50 for this molecule. `CCC[C@@H](CO)Nc1nc(N)nc2ccn(Cc3cc(Cc4nnn[nH]4)ccc3OC)c12`
Result: 0.8 µM

Ask: Give the reported EC50 for this molecule. `CCCCCNc1nc(N)nc2ccn(Cc3cc(Cc4nnn[nH]4)ccc3OC)c12`
Result: 0.05 µM

Ask: Give the reported EC50 for this molecule. `CCCCCNc1nc(N)nc2ccn(Cc3cc(CCc4nnn[nH]4)ccc3OC)c12`
Result: 0.06 µM

Ask: Give the reported EC50 for this molecule. `CCCCCNc1nc(N)nc2ccn(Cc3cc(C(=O)O)ccc3OC)c12`
Result: 0.1 µM
